Sourced from paper PMC9405123

Overview of reported inhibition at 250 µg/mL across a group of molecules:
# System: B. subtilis
# protocolDetails: Growth inhibition screening (broth dilution)
# Assay type: cell-based, Bacillus subtilis
# condition: Bacillus subtilis
# Description: In vitro screening of the compounds (PS1–14) was performed to assess the antibacterial activity against three Gram-positive (Staphylococcus aureus, Enterococcus faecalis and Bacillus subtilis,) and three Gram-negative (Pseudomonas aeruginosa, Klebsiella pneumonia and Escherichia coli) bacterial strains using the standard NCCLS broth dilution assay. […] After incubation, the growth was measured by turbidity of the culture at 590 nm by spectrophotometer.
readout: inhibition at 250 µg/mL

- molecule: "O=C1Nc2cc(F)ccc2/C1=N\\NC(=O)c1cc(-c2cccc(Br)c2)n[nH]1"
  readout: "inhibition at 250 µg/mL"
  result: "100%"
- molecule: "Cc1cc(C)c2c(c1)/C(=N\\NC(=O)c1cc(-c3cccc(Br)c3)n[nH]1)C(=O)N2"
  readout: "inhibition at 250 µg/mL"
  result: "44%"
- molecule: "CC1(C)S[C@@H]2[C@H](NC(=O)[C@H](N)c3ccccc3)C(=O)N2[C@H]1C(=O)O [AMP, ampicillin, reference compound]"
  readout: "inhibition at 250 µg/mL"
  result: "100%"
- molecule: "O=C1Nc2ccccc2/C1=N\\NC(=O)c1cc(-c2cccc(Br)c2)n[nH]1"
  readout: "inhibition at 250 µg/mL"
  result: "76%"

----------
# protocolDetails: Cytotoxicity assay (MTT)
# Format: cell-based
# condition: human, HEK293 cells, up to 200 µg/mL, read-out: viable HEK293 cells

- molecularString: "O=C1Nc2ccc(F)cc2/C1=N\\NC(=O)c1cc(-c2cccc(Br)c2)n[nH]1"
  viability at 48 h: "> 75%"

----------
# Tested on: E. faecalis
# protocolDetails: Minimum bactericidal concentration
# Type: cell-based, Enterococcus faecalis
# condition: Enterococcus faecalis

- molecule: "O=C1Nc2ccc(F)cc2/C1=N\\NC(=O)c1cc(-c2cccc(Br)c2)n[nH]1 [PS9]"
  MBC, µg/mL: 32
- molecule: "O=C1Nc2cc(Cl)ccc2/C1=N\\NC(=O)c1cc(-c2cccc(Br)c2)n[nH]1 [PS3]"
  MBC, µg/mL: 256
- molecule: "O=C1Nc2cc(Cl)c(F)cc2/C1=N\\NC(=O)c1cc(-c2cccc(Br)c2)n[nH]1 [PS6]"
  MBC, µg/mL: 32
- molecule: "COc1ccc2c(c1)/C(=N\\NC(=O)c1cc(-c3cccc(Br)c3)n[nH]1)C(=O)N2 [PS11]"
  MBC, µg/mL: 32

----------
# System: S. aureus
# protocolDetails: Growth inhibition screening (broth dilution)
# Type: cell-based, Staphylococcus aureus
# condition: Staphylococcus aureus

- compound: "O=C1Nc2cc(Cl)ccc2/C1=N\\NC(=O)c1cc(-c2cccc(Br)c2)n[nH]1 [PS3]"
  inhibition at 250 µg/mL: "64%"
- compound: "O=C1Nc2ccccc2/C1=N\\NC(=O)c1cc(-c2cccc(Br)c2)n[nH]1 [PS1]"
  inhibition at 250 µg/mL: "73%"
- compound: "O=C1Nc2c(Cl)cccc2/C1=N\\NC(=O)c1cc(-c2cccc(Br)c2)n[nH]1 [PS13]"
  inhibition at 250 µg/mL: "92%"
- compound: "O=C1Nc2cc(F)ccc2/C1=N\\NC(=O)c1cc(-c2cccc(Br)c2)n[nH]1 [PS7]"
  inhibition at 250 µg/mL: "10%"
- compound: "O=C1Nc2c(cccc2[N+](=O)[O-])/C1=N\\NC(=O)c1cc(-c2cccc(Br)c2)n[nH]1 [PS10]"
  inhibition at 250 µg/mL: "82%"
- compound: "Cc1ccc2c(c1)/C(=N\\NC(=O)c1cc(-c3cccc(Br)c3)n[nH]1)C(=O)N2 [PS2]"
  inhibition at 250 µg/mL: "66%"
- compound: "O=C1Nc2cc([N+](=O)[O-])ccc2/C1=N\\NC(=O)c1cc(-c2cccc(Br)c2)n[nH]1 [PS14]"
  inhibition at 250 µg/mL: "33%"
- compound: "COc1ccc2c(c1)/C(=N\\NC(=O)c1cc(-c3cccc(Br)c3)n[nH]1)C(=O)N2 [PS11]"
  inhibition at 250 µg/mL: "≥ 94%"
- compound: "Cc1cc(C)c2c(c1)/C(=N\\NC(=O)c1cc(-c3cccc(Br)c3)n[nH]1)C(=O)N2 [PS4]"
  inhibition at 250 µg/mL: "81%"
- compound: "O=C(O)c1cn(C2CC2)c2cc(N3CCNCC3)c(F)cc2c1=O [CIP, Ciprofloxacin, reference compound]"
  inhibition at 250 µg/mL: "100%"
- compound: "O=C1Nc2ccc(Cl)cc2/C1=N\\NC(=O)c1cc(-c2cccc(Br)c2)n[nH]1 [PS8]"
  inhibition at 250 µg/mL: "3%"
- compound: "CC1(C)S[C@@H]2[C@H](NC(=O)[C@H](N)c3ccccc3)C(=O)N2[C@H]1C(=O)O [AMP, ampicillin, reference compound]"
  inhibition at 250 µg/mL: "100%"
- compound: "COc1ccc2c(c1)NC(=O)/C2=N/NC(=O)c1cc(-c2cccc(Br)c2)n[nH]1 [PS12]"
  inhibition at 250 µg/mL: "100%"
- compound: "O=C1Nc2cc(Cl)c(F)cc2/C1=N\\NC(=O)c1cc(-c2cccc(Br)c2)n[nH]1 [PS6]"
  inhibition at 250 µg/mL: "61%"
- compound: "O=C1Nc2ccc(Br)cc2/C1=N\\NC(=O)c1cc(-c2cccc(Br)c2)n[nH]1 [PS5]"
  inhibition at 250 µg/mL: "100%"

----------
# Test system: B. subtilis
readout: MIC (µg/mL)

- compound: "O=C1Nc2cc(Cl)c(F)cc2/C1=N\\NC(=O)c1cc(-c2cccc(Br)c2)n[nH]1"
  targetUnderTest: "B. subtilis"
  readout: "MIC"
  valuePrefix: "="
  recordedNumber: 8
- compound: "O=C1Nc2ccc(F)cc2/C1=N\\NC(=O)c1cc(-c2cccc(Br)c2)n[nH]1"
  targetUnderTest: "B. subtilis"
  readout: "MIC"
  valuePrefix: "="
  recordedNumber: 32
- compound: "CC1(C)S[C@@H]2[C@H](NC(=O)[C@H](N)c3ccccc3)C(=O)N2[C@H]1C(=O)O [AMP, ampicillin, reference compound]"
  targetUnderTest: "B. subtilis"
  readout: "MIC"
  valuePrefix: "="
  recordedNumber: 0.25
- compound: "COc1ccc2c(c1)/C(=N\\NC(=O)c1cc(-c3cccc(Br)c3)n[nH]1)C(=O)N2"
  targetUnderTest: "B. subtilis"
  readout: "MIC"
  valuePrefix: ">"
  recordedNumber: 256
- compound: "O=C1Nc2cc(Cl)ccc2/C1=N\\NC(=O)c1cc(-c2cccc(Br)c2)n[nH]1"
  targetUnderTest: "B. subtilis"
  readout: "MIC"
  valuePrefix: "="
  recordedNumber: 64

----------
Overview of reported MBC/MIC Ratio (R*) across a group of molecules:
# System: S. aureus
# protocolDetails: Minimum bactericidal concentration
# Type: cell-based, Staphylococcus aureus
readout: MBC/MIC Ratio (R*)

- molecule: "O=C1Nc2cc(Cl)c(F)cc2/C1=N\\NC(=O)c1cc(-c2cccc(Br)c2)n[nH]1 [PS6]"
  valuePrefix: "="
  recordedNumber: 32
- molecule: "O=C1Nc2ccc(F)cc2/C1=N\\NC(=O)c1cc(-c2cccc(Br)c2)n[nH]1 [PS9]"
  valuePrefix: "="
  recordedNumber: 8
- molecule: "COc1ccc2c(c1)/C(=N\\NC(=O)c1cc(-c3cccc(Br)c3)n[nH]1)C(=O)N2 [PS11]"
  valuePrefix: ">"
  recordedNumber: 4
- molecule: "O=C1Nc2cc(Cl)ccc2/C1=N\\NC(=O)c1cc(-c2cccc(Br)c2)n[nH]1 [PS3]"
  valuePrefix: "="
  recordedNumber: 1

----------
System: MtMetAP1c (Mycobacterium tuberculosis) | Read-out: Ki
Sequence (P9WK19 whole entry): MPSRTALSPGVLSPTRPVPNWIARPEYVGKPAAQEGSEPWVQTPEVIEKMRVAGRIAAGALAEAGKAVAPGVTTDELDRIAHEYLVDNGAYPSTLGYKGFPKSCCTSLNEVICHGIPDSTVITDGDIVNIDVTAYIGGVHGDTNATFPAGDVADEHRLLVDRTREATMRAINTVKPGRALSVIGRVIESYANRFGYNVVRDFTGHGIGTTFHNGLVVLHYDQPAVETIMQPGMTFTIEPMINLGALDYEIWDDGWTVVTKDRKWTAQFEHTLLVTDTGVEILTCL

- molecularString: "O=C1Nc2ccccc2/C1=N\\NC(=O)c1cc(-c2cccc(Br)c2)n[nH]1"
  Ki: "2300 nM"
- molecularString: "O=C1Nc2ccc(Br)cc2/C1=N\\NC(=O)c1cc(-c2cccc(Br)c2)n[nH]1"
  Ki: "3140 nM"
- molecularString: "COc1ccc2c(c1)NC(=O)/C2=N/NC(=O)c1cc(-c2cccc(Br)c2)n[nH]1"
  Ki: "610 nM"
- molecularString: "O=C1Nc2cc(Cl)ccc2/C1=N\\NC(=O)c1cc(-c2cccc(Br)c2)n[nH]1"
  Ki: "2320 nM"
- molecularString: "O=C1Nc2ccc(F)cc2/C1=N\\NC(=O)c1cc(-c2cccc(Br)c2)n[nH]1"
  Ki: "310 nM"
- molecularString: "Cc1ccc2c(c1)/C(=N\\NC(=O)c1cc(-c3cccc(Br)c3)n[nH]1)C(=O)N2"
  Ki: "4370 nM"
- molecularString: "O=C1Nc2cc(Cl)c(F)cc2/C1=N\\NC(=O)c1cc(-c2cccc(Br)c2)n[nH]1"
  Ki: "740 nM"
- molecularString: "COc1ccc2c(c1)/C(=N\\NC(=O)c1cc(-c3cccc(Br)c3)n[nH]1)C(=O)N2"
  Ki: "1610 nM"
- molecularString: "O=C1Nc2cc([N+](=O)[O-])ccc2/C1=N\\NC(=O)c1cc(-c2cccc(Br)c2)n[nH]1"
  Ki: "1270 nM"
